Tested on: MS2 coat protein
experiment: apparent KD of MS2 coat protein; designed switch direction (-1 OFF switch, 1 ON switch): -1; higher = weaker reporter binding
recorded-conditions: Eterna round: R95; input ligand: microRNA oligo, concentration not stated
Please go through the items and note down their apparent KD of MS2 coat protein.
Give the value in nM but do not write nM after it.

Q: Would you kindly share the measured apparent KD of MS2 coat protein for GACUGCCGAGGAUAUACAUGAGGAUCACCCAUGUGCUUCAGCAUUUUUUGAUGCAUGGGUAGAAGGCGGUAGUU [LRO-Excl3-15] (puzzle: Exclusion 3) ?
Ans: 341

Q: Would you kindly share the measured apparent KD of MS2 coat protein for GAAAAGGUAGGAUAUACGAGAAAAAAGGGUAGAAAAAAAACACAUGAGGAUCACCCAUGUAGAAGGACCAAAAG [salish99_ex2_r3_029] (puzzle: Exclusion 2) ?
Ans: 23.1

Q: Would you kindly share the measured apparent KD of MS2 coat protein for UAGAAUCGAGGAUAUACAUGAGGAUCACCCAUGUGUUGCCGCGUGAUGUGUUUGUCAGGUAGAAGGCGAUUAUA [Exclusion 3 - Mod of Jieux's Gilly Gone Silly 23 v.8] (puzzle: Exclusion 3) ?
Ans: 63.8

###

Test system: MS2 coat protein
experiment: apparent KD of MS2 coat protein; designed switch direction (-1 OFF switch, 1 ON switch): -1; higher = weaker reporter binding
recorded-conditions: input ligand: none
Please go through the items and note down their apparent KD of MS2 coat protein.
Give the value in nM but do not write nM after it.

Q: Field: apparent KD of MS2 coat protein (MS2 coat protein). Entry: ACAUGAGGAUCACCCAUGUGACCACAAUGGCUGAUGUAACGACAGGAUAUUCGUGAAUAUCUAACGAAGAAGGGUCAUGACUGG [Deportation 62 - Jieux - Exclusion NG 3] (Eterna round: R96, puzzle: Exclusion NG 3)
Ans: 60.2

Q: Field: apparent KD of MS2 coat protein (MS2 coat protein). Entry: AUUAUAUAGACAGGAUAUUGAUUAUUAUUUUAACAUGAGGAUCACCCAUGUAACCUUAUGUGUAACAAGAAGGGUCAUUUAUUA [Title] (Eterna round: R96, puzzle: Exclusion NG 2)
Ans: 106

Q: Field: apparent KD of MS2 coat protein (MS2 coat protein). Entry: GUGUGGCCUGUAGGAUAUGGUUCCGUUUCGGUUCCAGAAGGACACGAGGAUACAUGAGGAUCACCCAUGUGCUCGUCACUGUGC [salish99_ExNG1_r04_404] (Eterna round: R96, puzzle: Exclusion NG 1)
Ans: 18.2

Q: Field: apparent KD of MS2 coat protein (MS2 coat protein). Entry: AAAUUAGCAAGUAGGUCCGACAUGAGGAUCACCCAUGUAAUCUGAAAUUACGCUGCACGAAAGUGCGCUCGUCUUAG [Sensor-V1 #11] (Eterna round: R97, puzzle: Sensor, turn-off variant 1)
Ans: 149

Q: Field: apparent KD of MS2 coat protein (MS2 coat protein). Entry: UGAGUACUGCGAGGAUAUACAUGAGGAUCACCCAUGUAAUAGUGUGAGGCUUUGCCUCACACAAUGUAGAAGGCGCAGUACUCU [Mat - Exclusion NG 2 - Mod of JL - D5] (Eterna round: R96, puzzle: Exclusion NG 2)
Ans: 11.8

Q: Field: apparent KD of MS2 coat protein (MS2 coat protein). Entry: AGUAUGUGAGGAUAUUUUUCGUCCGGUAGGAUACUACAGAGAAAGAAGGCACAUGAGGAUCACCCAUGUGAGAC [Eternabot (L1) Solution 55] (Eterna round: R97, puzzle: Exclusion 4)
Ans: 20.1

Q: Field: apparent KD of MS2 coat protein (MS2 coat protein). Entry: AAACAGGAAGGAUAUACAUGAGGAUCACCCAUGUAGGAAAACCUACCAAAAGACCCAAGUAGAAGGUCCGAAAA [jl-ex3-4.64 ViennaUCT mod] (Eterna round: R97, puzzle: Exclusion 3)
Ans: 15.3

Q: Field: apparent KD of MS2 coat protein (MS2 coat protein). Entry: GGUUUGCGGCAGGAUAUCCAUCCGCGGUAUGGUGGAGAAGGGCUGACAUGAGGAUCACCCAUGUGCGUCCUAGG [salish99_ex6_r4_018] (Eterna round: R97, puzzle: Exclusion 6)
Ans: 18.8

Q: Field: apparent KD of MS2 coat protein (MS2 coat protein). Entry: CCCACAAGCUUUUUGCUCGACAUGAGGAUCACCCAUGUUGAAUGGGUUAUAUAUAUAUGAAACAUAUAUAUAUACCU [-24.7, -47.5 kcal, A 32%] (Eterna round: R97, puzzle: Sensor, turn-off variant 1)
Ans: 20.2

Q: Field: apparent KD of MS2 coat protein (MS2 coat protein). Entry: GGUCUACAUGAGGAUCACCCAUGUAAGGAUAUCGUCACUGGAGCUUCGGCUCCAGUGACGAGAAGGUGCAUAAU [E1/11-A1] (Eterna round: R97, puzzle: Exclusion 1)
Ans: 27.2

Q: Field: apparent KD of MS2 coat protein (MS2 coat protein). Entry: GUUCUGACAGGAUAUACAUGAGGAUCACCCAUGUGCCCUUAGAGAUGCAAAGCAUCUCGUAGAAGGGUCUGAAC [Omei Ex3 Model Bachelor's Dilema v28] (Eterna round: R97, puzzle: Exclusion 3)
Ans: 31.6

Q: Field: apparent KD of MS2 coat protein (MS2 coat protein). Entry: CAGCUGAAAGUGAGGAUAUCUAGAGCUUCGGCUCUAGAGAAGGCACAUGAGGAUCACCCAUGUGAUCACAGCUG [BmEx4/7-A1] (Eterna round: R97, puzzle: Brourd's mod of Exclusion 4)
Ans: 356

Q: Field: apparent KD of MS2 coat protein (MS2 coat protein). Entry: GCCGUUAAGGUAGGAUAUGCUCGGUCUGUUCGUGCAGAAGGGCUGGUCGGCGACUUGAGGAUCACCCAAGUGGUCUUAUAGAAA [Mutated MS2 EX1.19] (Eterna round: R96, puzzle: Exclusion NG 1)
Ans: 54.8

Q: Field: apparent KD of MS2 coat protein (MS2 coat protein). Entry: GUAACAUGCUGGUGAUCAUACAUGAGGAUCACCCAUGUAACAAGCUUUUUGCUCGUCUUAUAAGAUUACUAGUAUGU [Stov1/10-A3] (Eterna round: R97, puzzle: Sensor, turn-off variant 1)
Ans: 24.3

Q: Field: apparent KD of MS2 coat protein (MS2 coat protein). Entry: GAACAAGCGUGAGGCUCGUCUUAAAGAGCCUCAUGAAAAACAUGAGGAUCACCCAUGUAAAAUGAUCGAAAGAUCAA [Mat - Sensor v2 - var 2 - Mod - D131] (Eterna round: R96, puzzle: Sensor v2, turn-off variant 2)
Ans: 16.9

Q: Field: apparent KD of MS2 coat protein (MS2 coat protein). Entry: AGAGUGCUGCGAGGAUAUACAUGAGGAUCACCCAUGUAUUAGUGUGAGGCUUUGCCUCACACAAUGUAGAAGGCGCAGUACUCA [Mat - Exclusion NG 2 - Mod of JL - D8] (Eterna round: R96, puzzle: Exclusion NG 2)
Ans: 12.4

Q: Field: apparent KD of MS2 coat protein (MS2 coat protein). Entry: ACAAGCUCUGUUGGGUGGUACAUGAGGAUCACCCAUGUUUUGCUCGUCUUGUGGGCCCGGGCCCGCGGCCCGGGCCC [-41.7, -69.7, A 12%] (Eterna round: R97, puzzle: Sensor, turn-off variant 1)
Ans: 807

Q: Field: apparent KD of MS2 coat protein (MS2 coat protein). Entry: ACUUACUGAGGAUAUACAUAGAUUUACAUGAGGAUCACCCAUGUUCCUCUAAGUAUAUAUGUAGAAGGCAGAAGGG [Mat - Exclusion 5 - JL Mod - D41] (Eterna round: R97, puzzle: Exclusion 5)
Ans: 166
